Provenance of the data: ChEMBL document CHEMBL1134119

Biological target: Chymase (Homo sapiens, UniProt P23946)
Sequence (P23946 whole entry): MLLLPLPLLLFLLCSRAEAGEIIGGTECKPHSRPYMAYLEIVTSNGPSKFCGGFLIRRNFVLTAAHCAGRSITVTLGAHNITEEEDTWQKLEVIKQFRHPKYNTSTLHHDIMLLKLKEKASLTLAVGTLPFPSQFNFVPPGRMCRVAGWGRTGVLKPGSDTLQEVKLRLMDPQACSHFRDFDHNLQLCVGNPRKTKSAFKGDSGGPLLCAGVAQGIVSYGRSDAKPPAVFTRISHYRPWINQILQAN
Experiment: Compound was evaluated for its inhibitory activity against human Serine protease chymase
reported-property: IC50 (µM)

| chemical-structure | reported-property | reading |
| --- | --- | --- |
| COC(/C=C/c1ccccc1)=C1C(=O)C(OC)=C(OC)C1=O | IC50 | 30 |
| COC(CCc1ccccc1)=C1C(=O)C=CC1=O | IC50 | 40 |

---

Biological target: Chymase (Homo sapiens, UniProt P23946)
Sequence (P23946 whole entry): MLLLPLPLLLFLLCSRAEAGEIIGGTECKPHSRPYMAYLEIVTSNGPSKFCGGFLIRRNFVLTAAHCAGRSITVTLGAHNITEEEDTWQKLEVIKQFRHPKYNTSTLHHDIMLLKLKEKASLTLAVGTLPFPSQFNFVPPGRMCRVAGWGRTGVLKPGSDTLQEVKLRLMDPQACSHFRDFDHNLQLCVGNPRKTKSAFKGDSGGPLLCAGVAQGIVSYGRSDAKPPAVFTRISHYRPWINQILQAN
Assay: Compound was evaluated for its inhibitory activity against human chymase
reported-property: IC50

Query string: Please report the recorded IC50 for COC(C)=C1C(=O)C=CC1=O .
Result string: > 1000 µM
